# Assay target: recombinant human liver glycogen phosphorylase (Homo sapiens, UniProt P06737)
# Construct: made in house; host or cells: Sf9 insect cells (crude homogenate, diluted, used as the enzyme solution)
# Sequence (P06737 whole entry): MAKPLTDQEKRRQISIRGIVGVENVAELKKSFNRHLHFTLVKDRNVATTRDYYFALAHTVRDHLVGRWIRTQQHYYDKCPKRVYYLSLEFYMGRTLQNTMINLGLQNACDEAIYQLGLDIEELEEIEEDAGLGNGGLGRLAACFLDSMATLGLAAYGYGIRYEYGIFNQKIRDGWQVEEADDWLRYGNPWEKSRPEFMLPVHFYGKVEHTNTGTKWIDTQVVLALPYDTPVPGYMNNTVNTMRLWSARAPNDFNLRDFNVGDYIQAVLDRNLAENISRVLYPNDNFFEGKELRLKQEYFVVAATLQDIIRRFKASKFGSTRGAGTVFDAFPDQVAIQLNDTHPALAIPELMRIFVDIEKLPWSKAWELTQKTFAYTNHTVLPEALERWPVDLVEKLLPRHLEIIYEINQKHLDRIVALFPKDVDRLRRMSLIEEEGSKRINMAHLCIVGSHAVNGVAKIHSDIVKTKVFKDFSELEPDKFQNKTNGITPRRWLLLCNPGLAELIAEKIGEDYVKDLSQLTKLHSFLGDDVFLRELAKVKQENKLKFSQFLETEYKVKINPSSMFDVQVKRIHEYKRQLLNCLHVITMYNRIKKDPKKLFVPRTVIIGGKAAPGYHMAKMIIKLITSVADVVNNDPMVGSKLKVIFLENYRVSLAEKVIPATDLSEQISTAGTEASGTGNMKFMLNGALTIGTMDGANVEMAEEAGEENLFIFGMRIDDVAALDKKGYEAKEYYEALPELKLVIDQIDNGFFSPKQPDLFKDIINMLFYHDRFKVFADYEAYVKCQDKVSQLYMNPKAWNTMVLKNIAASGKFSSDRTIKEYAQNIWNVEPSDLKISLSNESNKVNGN
# Assay protocol: Measuring liver glycogen phosphorylase activity (forward reaction system, NADPH absorbance at 340 nm)
# Type: biochemical
# Assay setup: compound concentration 100 nmol (in parentheses); read-out: inhibition rate (%) at a certain concentration
Property label: inhibition at 0.1 µM (%)
Please give a number only; it is taken to be in %.

Hello, I am looking for reported inhibition at 0.1 µM with recombinant human liver glycogen phosphorylase (Homo sapiens, UniProt P06737) for O=C(NCc1cccc(-c2ccccc2)c1)c1cc(NC(=O)c2cc(F)c(F)cc2Cl)[nH]n1 [Example 2-29] . Could you help?
45.8

API: value(readout= inhibition at 0.1 µM, system= recombinant human liver glycogen phosphorylase (Homo sapiens, UniProt P06737), query= CCOC(=O)C(C)(C)c1cnc(NC(=O)c2cc(NC(=O)c3cc(F)c(F)cc3Cl)[nH]n2)c(OCC)c1 [Example 1-148] )
14.1

Please state recorded inhibition at 0.1 µM (tested on recombinant human liver glycogen phosphorylase (Homo sapiens, UniProt P06737)) of O=C(NCCc1ccncc1)c1cc(NC(=O)c2cc(F)c(F)cc2Cl)[nH]n1 [Example 1-141]
31.4

Enter reported inhibition at 0.1 µM observed with recombinant human liver glycogen phosphorylase (Homo sapiens, UniProt P06737) for O=C(Nc1cccc2cccnc12)c1cc(NC(=O)c2cc(F)c(F)cc2Cl)[nH]n1 [Example 1-146]
11.3

###

# Test system: db/db mice
# Assay protocol: Measuring blood plasma glucose concentration in db/db mice (hypoglycemic effect)
# Format: in vivo
# Parameters: key: ++: compounds exhibiting statistically significant hypoglycemic effect at a dose of 10 mg/kg or less; +: compounds exhibiting not significant but obvious hypoglycemic effect at a dose of 10 mg/kg
# Assay setup: db/db mice fasted 4 h, oral administration, plasma glucose 1 and 3 hours after administration, dose 10 mg/kg or less, Dunnett test vs solvent
Counter-ions that a name gives are not always drawn.
Property label: vivo (hypoglycemic effect in db/db mice)

// known answers, use as guide
> print(dat)
                                   compound  test.value
1  Cc1ncsc1CNC(=O)c1cc(NC(=O)c2cc(F)c(F)cc2Cl)[nH]n1.Cl [Example 5-32]           +
2  O=C(NCc1ccc(Cl)cc1)c1cc(NC(=O)c2cc(F)c(F)cc2Cl)[nH]n1 [Example 1-71]           +
3  COCCN(C(=O)c1cc(NC(=O)c2cc(F)c(F)cc2Cl)[nH]n1)c1ccc(C(=O)O)cc1 [Example 4-48]          ++
4  Cc1ccnc(C)c1CNC(=O)c1cc(NC(=O)c2cc(F)c(F)cc2Cl)[nH]n1 [Example 1-3-1, dihydrochloride]          ++

Tell me the measured vivo (hypoglycemic effect in db/db mice) of Cc1ccc(CNC(=O)c2cc(NC(=O)c3cc(F)c(F)cc3Cl)[nH]n2)c(Cl)n1 [Example 1-56] , please.
+

What vivo (hypoglycemic effect in db/db mice) value was documented for this compound, Cc1cc(C)c(CNC(=O)c2cc(NC(=O)c3cc(F)c(F)cc3Cl)[nH]n2)cn1 [Example 2-4-1, dihydrochloride] ?
++

Dear colleague, I am looking for the recorded vivo (hypoglycemic effect in db/db mice) of the following compound: COCCN(C(=O)c1cc(NC(=O)c2cc(F)c(F)cc2Cl)[nH]n1)C1CCCCC1 [Example 1-90]
+
